IC50: recorded values
Test system: fMLP/CB-induced human neutrophils
assaySummary: Superoxide anion generation in fMLP/CB-induced human neutrophils
Format: cell-based
settings: fMLP/CB-induced human neutrophils; mean ± S.E.M. (n = 3–4)

fMLP/CB-induced human neutrophils assay, compound CC1(C)CC[C@]2(C(=O)O)CC[C@]3(C)C(=C[C@@H](O)[C@@H]4[C@@]5(C)C[C@@H](O)[C@H](O)[C@@](C)(CO)[C@@H]5CC[C@]43C)[C@@H]2C1 [cleistocalyxic acid E (7), cleistocalyxic acid E] , recorded IC50 = > 10 µM

----------
Tested on: fMLP/CB-induced human neutrophils
assaySummary: Elastase release in fMLP/CB-induced human neutrophils
Assay type: cell-based
settings: Neutrophil, mean ± S.E.M. (n = 3–4)
outcomeMeasure: IC50

For reference, reported IC50 for "COc1cc(C=O)cc(OC)c1O" stands at > 10 µM
